Source of measurements: paper PMC10557102

- METHOD: Plasma pharmacokinetics of nivasorexant 100 mg b.i.d. in healthy subjects
- CONDITIONS: both, human, plasma, oral, AUCτ, Trt D, Day 15, repeated 100 mg b.i.d.; geometric mean (95% CI)
OUTCOME_MEASURE: AUC
Just so you know, I need the unit written after the number.

Entry Cc1ccc(C(=O)N2CCOC[C@H]2Cc2cccc(-n3nccn3)c2)c(-n2nccn2)c1 : reported AUC = ? 8560 ng·h/mL

* * *

- TEST_TARGET: CYP3A4 (Homo sapiens, UniProt P08684)
- Sequence (P08684 whole entry): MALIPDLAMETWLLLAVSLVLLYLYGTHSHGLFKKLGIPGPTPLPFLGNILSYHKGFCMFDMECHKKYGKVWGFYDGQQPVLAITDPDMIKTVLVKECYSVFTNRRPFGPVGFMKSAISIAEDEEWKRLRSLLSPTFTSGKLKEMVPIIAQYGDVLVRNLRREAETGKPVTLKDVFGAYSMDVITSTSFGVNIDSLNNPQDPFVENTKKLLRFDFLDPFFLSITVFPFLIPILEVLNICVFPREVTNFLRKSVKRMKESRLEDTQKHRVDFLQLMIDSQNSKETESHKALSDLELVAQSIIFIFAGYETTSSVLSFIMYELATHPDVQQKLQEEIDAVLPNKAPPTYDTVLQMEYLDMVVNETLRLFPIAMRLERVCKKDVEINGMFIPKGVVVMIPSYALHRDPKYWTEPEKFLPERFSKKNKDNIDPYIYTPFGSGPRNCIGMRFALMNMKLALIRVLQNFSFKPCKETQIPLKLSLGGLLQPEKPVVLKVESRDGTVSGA
- METHOD: Cocktail DDI study: PK of midazolam and 1-OH midazolam with/without nivasorexant
- CONDITIONS: both, human, plasma, oral, AUC0–24, Trt D, Day 15, cocktail + nivasorexant at steady state; geometric mean (95% CI)
OUTCOME_MEASURE: AUC(0-t) (ng·h/mL)
Kindly provide the numeric value in ng·h/mL only, without the unit symbol.

Fill in the blank: the reported AUC(0-t) of Cc1ncc2n1-c1ccc(Cl)cc1C(c1ccccc1F)=NC2 is ____. 54.8

* * *

- TEST_TARGET: CYP3A4 (Homo sapiens)
- METHOD: Cocktail DDI study: PK of midazolam and 1-OH midazolam with/without nivasorexant
- CONDITIONS: both, human, plasma, oral, AUC0–24, Trt A, Day 1, cocktail alone; geometric mean (95% CI)
OUTCOME_MEASURE: AUC(0-t) (ng·h/mL)
Note: unit ng·h/mL is implicit; provide only the numeric part.

Entry Cc1ncc2n1-c1ccc(Cl)cc1C(c1ccccc1F)=NC2 : reported AUC(0-t) = ? 14.6

* * *

- Tested on: CYP2C9
- CONDITIONS: both, human, in vivo, t max, Trt D, Day 15, cocktail + nivasorexant at steady state; median (range)
OUTCOME_MEASURE: t max (h)
Report the figure in h without appending any unit label.

Need t max of CC(C(=O)O)c1ccc(-c2ccccc2)c(F)c1 (stereo not shown) , thanks. 2.5

* * *

- TEST_TARGET: CYP2A6 (Homo sapiens, UniProt P11509)
- Sequence (P11509 whole entry): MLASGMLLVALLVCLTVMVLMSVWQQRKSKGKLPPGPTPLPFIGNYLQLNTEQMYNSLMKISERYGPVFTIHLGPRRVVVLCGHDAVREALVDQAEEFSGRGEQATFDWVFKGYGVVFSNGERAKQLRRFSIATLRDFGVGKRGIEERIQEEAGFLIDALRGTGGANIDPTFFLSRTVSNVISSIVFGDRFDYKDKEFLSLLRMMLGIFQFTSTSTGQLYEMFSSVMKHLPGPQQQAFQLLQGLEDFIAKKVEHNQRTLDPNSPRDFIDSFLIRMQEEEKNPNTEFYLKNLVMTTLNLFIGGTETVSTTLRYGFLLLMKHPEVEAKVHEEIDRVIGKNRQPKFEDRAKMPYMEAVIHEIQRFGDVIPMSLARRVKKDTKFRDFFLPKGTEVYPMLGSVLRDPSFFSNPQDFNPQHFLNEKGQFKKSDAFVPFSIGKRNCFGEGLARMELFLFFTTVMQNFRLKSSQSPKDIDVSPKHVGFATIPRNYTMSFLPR
OUTCOME_MEASURE: IC50

Which IC50 value belongs to Cc1ccc(C(=O)N2CCOC[C@H]2Cc2cccc(-n3nccn3)c2)c(-n2nccn2)c1 ? > 100 µM

* * *

- TEST_TARGET: CYP2B6 (Homo sapiens, UniProt P20813)
- Sequence (P20813 whole entry): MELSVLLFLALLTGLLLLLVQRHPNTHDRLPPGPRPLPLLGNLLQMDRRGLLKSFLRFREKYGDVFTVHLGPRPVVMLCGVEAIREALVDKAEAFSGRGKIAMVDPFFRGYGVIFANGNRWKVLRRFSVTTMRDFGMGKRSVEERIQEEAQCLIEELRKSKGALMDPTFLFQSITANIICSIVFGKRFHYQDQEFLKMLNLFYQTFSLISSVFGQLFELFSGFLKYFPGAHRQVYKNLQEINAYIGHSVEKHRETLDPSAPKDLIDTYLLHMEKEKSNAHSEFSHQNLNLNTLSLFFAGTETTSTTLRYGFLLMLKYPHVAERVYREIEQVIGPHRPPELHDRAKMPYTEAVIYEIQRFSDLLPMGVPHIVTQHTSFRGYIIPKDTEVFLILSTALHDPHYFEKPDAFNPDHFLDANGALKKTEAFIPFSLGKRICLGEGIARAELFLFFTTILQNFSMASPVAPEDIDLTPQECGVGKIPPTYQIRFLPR
OUTCOME_MEASURE: IC50

Record request: IC50 value, item Cc1ccc(C(=O)N2CCOC[C@H]2Cc2cccc(-n3nccn3)c2)c(-n2nccn2)c1 > 100 µM

* * *

- METHOD: Plasma pharmacokinetics of nivasorexant 100 mg b.i.d. in healthy subjects
- CONDITIONS: both, human, plasma, oral, t max, Trt D, Day 15, repeated 100 mg b.i.d.; median (range)
OUTCOME_MEASURE: t max
Answer with the figure and its unit, nothing else.

Can you look up the measured t max of Cc1ccc(C(=O)N2CCOC[C@H]2Cc2cccc(-n3nccn3)c2)c(-n2nccn2)c1 for me? 2 h

* * *

Target protein (sequence): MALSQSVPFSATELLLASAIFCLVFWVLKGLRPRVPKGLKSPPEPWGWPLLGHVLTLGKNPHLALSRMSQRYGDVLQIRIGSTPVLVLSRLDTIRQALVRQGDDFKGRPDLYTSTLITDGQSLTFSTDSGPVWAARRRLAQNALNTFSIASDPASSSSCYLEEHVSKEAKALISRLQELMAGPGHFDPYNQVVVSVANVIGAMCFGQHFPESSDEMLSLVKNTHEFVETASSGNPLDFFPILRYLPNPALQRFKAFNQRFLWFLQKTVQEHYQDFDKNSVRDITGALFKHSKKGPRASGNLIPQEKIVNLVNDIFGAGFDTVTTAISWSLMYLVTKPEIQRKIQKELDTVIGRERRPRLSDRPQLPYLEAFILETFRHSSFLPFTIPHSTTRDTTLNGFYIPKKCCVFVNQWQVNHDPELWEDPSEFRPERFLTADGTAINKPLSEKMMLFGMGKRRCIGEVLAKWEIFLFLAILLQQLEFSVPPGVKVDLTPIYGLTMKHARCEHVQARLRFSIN
OUTCOME_MEASURE: IC50

Would you kindly share the measured IC50 for Cc1ccc(C(=O)N2CCOC[C@H]2Cc2cccc(-n3nccn3)c2)c(-n2nccn2)c1 [nivasorexant] ? > 100 µM

* * *

- TEST_TARGET: CYP3A4 (Homo sapiens, UniProt P08684)
- METHOD: Competitive
- Assay type: in vitro ADME
OUTCOME_MEASURE: IC50 (µM)
Record the value in µM, omitting the unit from your answer.

Please provide the recorded IC50 for Cc1ccc(C(=O)N2CCOC[C@H]2Cc2cccc(-n3nccn3)c2)c(-n2nccn2)c1 [nivasorexant] , tested on CYP3A4 (Homo sapiens, UniProt P08684). 44

* * *

- TEST_TARGET: CYP2C19 (Homo sapiens, UniProt P33261)
- Sequence (P33261 whole entry): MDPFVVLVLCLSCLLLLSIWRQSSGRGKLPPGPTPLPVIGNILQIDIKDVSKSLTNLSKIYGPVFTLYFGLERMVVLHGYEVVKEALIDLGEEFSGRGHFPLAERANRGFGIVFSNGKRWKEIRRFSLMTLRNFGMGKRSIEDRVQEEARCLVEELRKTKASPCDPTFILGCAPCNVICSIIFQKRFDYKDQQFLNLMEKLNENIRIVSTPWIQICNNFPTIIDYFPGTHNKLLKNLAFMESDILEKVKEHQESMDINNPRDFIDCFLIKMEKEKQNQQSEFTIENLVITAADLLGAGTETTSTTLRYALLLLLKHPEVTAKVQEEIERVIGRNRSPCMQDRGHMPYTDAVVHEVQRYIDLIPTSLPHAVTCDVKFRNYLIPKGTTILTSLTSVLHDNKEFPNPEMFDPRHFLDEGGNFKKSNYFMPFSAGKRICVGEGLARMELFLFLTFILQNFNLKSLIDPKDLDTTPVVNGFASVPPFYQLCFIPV
- METHOD: clinical
- CONDITIONS: both, in vivo, 20 mg
OUTCOME_MEASURE: Cmax (ng/mL)
Hi! Could you send only the number? It should be in ng/mL, unit omitted.

What Cmax value was documented for this compound, COc1ccc2[nH]c([S+]([O-])Cc3ncc(C)c(OC)c3C)nc2c1 (stereo not shown) [omeprazole] ? 162

* * *

- TEST_TARGET: CYP2C19 (Homo sapiens)
- METHOD: clinical
- CONDITIONS: both, in vivo, t ½, Trt A, Day 1, cocktail alone, geometric mean (95% CI)
OUTCOME_MEASURE: half-life (min)
Kindly provide the numeric value in min only, without the unit symbol.

Which half-life value is on record for COc1ccc2[nH]c([S+]([O-])Cc3ncc(C)c(OC)c3C)nc2c1 (stereo not shown) [omeprazole] ? 59.4

* * *

- TEST_TARGET: CYP2C19 (Homo sapiens, UniProt P33261)
- METHOD: clinical
- CONDITIONS: both, in vivo, AUC0–24, Trt D, Day 15, cocktail + nivasorexant at steady state, geometric mean (95% CI)
OUTCOME_MEASURE: AUC(0-t) (ng·h/mL)
Please reply with the bare figure in ng·h/mL and do not write the unit itself.

Query for CYP2C19 (Homo sapiens, UniProt P33261): what AUC(0-t) does the record show for COc1ccc2[nH]c([S+]([O-])Cc3ncc(C)c(OC)c3C)nc2c1 (stereo not shown) ? 2670

* * *

- Test system: CYP2C9
- CONDITIONS: both, human, in vivo, t ½, Trt A, Day 1, cocktail alone; geometric mean (95% CI)
OUTCOME_MEASURE: half-life (h)
Express the result in h but write the number alone.

# value lookup — system CYP2C9, readout half-life, item CC(C(=O)O)c1ccc(-c2ccccc2)c(F)c1 (stereo not shown) 5.73

* * *

- TEST_TARGET: CYP2C9 (Homo sapiens, UniProt P11712)
- Sequence (P11712 whole entry): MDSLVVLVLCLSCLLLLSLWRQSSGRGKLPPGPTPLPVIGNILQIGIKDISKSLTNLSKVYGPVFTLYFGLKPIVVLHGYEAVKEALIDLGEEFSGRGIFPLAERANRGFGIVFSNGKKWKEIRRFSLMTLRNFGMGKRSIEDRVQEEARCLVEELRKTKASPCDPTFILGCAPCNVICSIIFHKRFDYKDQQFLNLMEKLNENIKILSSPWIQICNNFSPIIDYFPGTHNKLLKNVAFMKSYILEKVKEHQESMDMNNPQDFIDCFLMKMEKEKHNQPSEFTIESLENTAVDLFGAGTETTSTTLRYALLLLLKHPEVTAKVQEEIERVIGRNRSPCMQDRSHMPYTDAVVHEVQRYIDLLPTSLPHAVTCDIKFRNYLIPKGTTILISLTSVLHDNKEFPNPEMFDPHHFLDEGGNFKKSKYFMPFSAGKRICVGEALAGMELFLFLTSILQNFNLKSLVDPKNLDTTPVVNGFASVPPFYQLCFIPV
OUTCOME_MEASURE: Ki (µM)
Express it in µM; write the number only.

Reported Ki for Cc1ccc(C(=O)N2CCOC[C@H]2Cc2cccc(-n3nccn3)c2)c(-n2nccn2)c1 : what is it? 5

* * *

- TEST_TARGET: CYP2D6 (Homo sapiens)
- Sequence (P10635 whole entry): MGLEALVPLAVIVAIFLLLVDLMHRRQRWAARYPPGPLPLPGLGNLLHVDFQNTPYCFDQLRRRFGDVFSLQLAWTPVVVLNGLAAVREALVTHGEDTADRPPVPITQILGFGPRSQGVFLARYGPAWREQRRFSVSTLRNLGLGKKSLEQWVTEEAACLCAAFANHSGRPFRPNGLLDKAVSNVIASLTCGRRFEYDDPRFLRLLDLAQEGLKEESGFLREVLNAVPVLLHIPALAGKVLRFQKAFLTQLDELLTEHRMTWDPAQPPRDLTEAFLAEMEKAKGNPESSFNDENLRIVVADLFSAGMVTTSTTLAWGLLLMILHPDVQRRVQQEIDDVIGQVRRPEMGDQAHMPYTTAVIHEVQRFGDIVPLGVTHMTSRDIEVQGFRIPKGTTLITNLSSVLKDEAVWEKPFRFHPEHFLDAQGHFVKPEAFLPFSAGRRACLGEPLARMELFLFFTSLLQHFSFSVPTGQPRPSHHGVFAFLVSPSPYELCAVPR
OUTCOME_MEASURE: IC50

Return IC50 measured with CYP2D6 (Homo sapiens) given this compound: Cc1ccc(C(=O)N2CCOC[C@H]2Cc2cccc(-n3nccn3)c2)c(-n2nccn2)c1 > 100 µM

* * *

- TEST_TARGET: UniProt:P10632
- Sequence (P10632 whole entry): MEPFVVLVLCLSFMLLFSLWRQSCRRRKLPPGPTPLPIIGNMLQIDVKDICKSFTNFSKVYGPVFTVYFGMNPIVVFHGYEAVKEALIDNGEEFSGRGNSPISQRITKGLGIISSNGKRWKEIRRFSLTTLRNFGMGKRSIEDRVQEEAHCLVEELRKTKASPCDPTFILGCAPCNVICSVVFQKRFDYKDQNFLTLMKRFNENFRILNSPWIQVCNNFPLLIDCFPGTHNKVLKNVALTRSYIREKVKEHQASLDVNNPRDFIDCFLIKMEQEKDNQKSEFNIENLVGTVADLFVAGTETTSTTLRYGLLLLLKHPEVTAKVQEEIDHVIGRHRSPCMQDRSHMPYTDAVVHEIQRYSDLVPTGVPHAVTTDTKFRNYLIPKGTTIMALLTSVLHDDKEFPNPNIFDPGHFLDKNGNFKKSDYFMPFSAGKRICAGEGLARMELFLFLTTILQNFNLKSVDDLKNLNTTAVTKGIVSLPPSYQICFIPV
OUTCOME_MEASURE: IC50
Please answer in the form of a number followed by its unit of measurement.

Notebook: pull reported IC50 for UniProt:P10632, entry Cc1ccc(C(=O)N2CCOC[C@H]2Cc2cccc(-n3nccn3)c2)c(-n2nccn2)c1 [nivasorexant] 25 µM

* * *

- TEST_TARGET: CYP2C9 (Homo sapiens)
OUTCOME_MEASURE: pIC50
In textbook form, pIC50 equals minus log to base ten of the concentration in mol/L.

Item Cc1ccc(C(=O)N2CCOC[C@H]2Cc2cccc(-n3nccn3)c2)c(-n2nccn2)c1 has what recorded pIC50? 5.07

* * *

- System: CYP2C9
- CONDITIONS: both, human, in vivo, 50 mg, C max, Trt A, Day 1, cocktail alone (flurbiprofen 50 mg); geometric mean (95% CI)
OUTCOME_MEASURE: Cmax (ng/mL)
Answer in ng/mL, number only, no unit symbol.

Return reported Cmax; argument: CC(C(=O)O)c1ccc(-c2ccccc2)c(F)c1 (stereo not shown) 6410

* * *

- METHOD: Plasma pharmacokinetics of nivasorexant 100 mg b.i.d. in healthy subjects
- CONDITIONS: both, human, plasma, oral, C max, Trt D, Day 15, repeated 100 mg b.i.d., steady state; geometric mean (95% CI)
OUTCOME_MEASURE: Cmax
Please state the value followed by its unit.

Endpoint output: Cmax of Cc1ccc(C(=O)N2CCOC[C@H]2Cc2cccc(-n3nccn3)c2)c(-n2nccn2)c1 . Value? 1250 ng/mL

* * *

- TEST_TARGET: CYP3A4 (Homo sapiens)
- METHOD: Competitive
- Assay type: in vitro ADME
- CONDITIONS: IC50, human liver microsomes; midazolam 1′‐hydroxylation
OUTCOME_MEASURE: IC50
Write the numeric value and append its unit.

Which IC50 reading was recorded for the molecule Cc1ccc(C(=O)N2CCOC[C@H]2Cc2cccc(-n3nccn3)c2)c(-n2nccn2)c1 ? 19 µM
